Test system: Glutamate receptor ionotropic, NMDA 3A (GRIN3A) ligand-binding domain
Test: binders of NR3A ligand-binding domain, primary screen, biophysical, differential scanning fluorimetry, uHTS (AID 1259313)
Details: NR3A LBD differential scanning fluorimetry, at 25 µM, 0% = protein alone, 100% = glycine-bound protein
In all, about 340,000 compounds went through this assay and about 8,500 (2.5%) were called active.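 The calls were made as follows: active = melting temperature shift of at least 10% of the positive control shift, at one fixed dose; inactive = the rest.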 For the sample, actives were picked, then their nearest neighbours and some compounds at random.
Write down one outcome, taken from active, inactive

# input Please let me know the test result on file for Cc1ccc(NC(=O)CSCC(=O)N2CCOCC2)cc1 .
# output inactive

###

Test system: Glutamate receptor ionotropic, NMDA 3A (GRIN3A) ligand-binding domain
Assay: binders of NR3A ligand-binding domain, primary screen, biophysical, differential scanning fluorimetry, uHTS (AID 1259313)
Details: NR3A LBD differential scanning fluorimetry, at 25 µM, hits give high values, 0% = protein alone, 100% = glycine-bound protein
Screen size: about 340,000 compounds; about 8,500 (2.5%) were called active. Many of the other results were omitted from the sample, so actives are more common in it than they were.
experimental endpoint: Tm shift relative to glycine control (%)
The reply should contain only the number, in %.

Would you please look over these solved cases?
O=C(Nc1ccc2c(c1)CCC2)c1ccc(Br)s1
14.5
COCC(C)NC(=O)c1ccc(-n2nc(C(F)(F)F)cc2-c2cccs2)cc1 (configuration not stated)
-0.17

# input Look up Tm shift relative to glycine control: Cc1c(C(=O)NNC(=O)c2ccncc2)oc2ccccc12
# output 2.4

# input Follow-up item: O=C(CCCN1C(=O)CSc2ncccc21)N1CCN(c2cccc(C(F)(F)F)c2)CC1
# output -1.45

# input Follow-up item: CCC(CC)NC(=O)CSc1nnc(-c2c[nH]c3ccccc23)o1
# output 1.71

# input Follow-up item: COc1ccc(CCNC(=O)CSc2nnc3ccc(-c4ccncc4)nn23)cc1
# output -0.92

# input Follow-up item: COc1ccc2nc(Nc3nc4cc5c(cc4s3)OCCO5)sc2c1
# output 12.4

# input Follow-up item: O=C(Nc1cc(S(=O)(=O)N2CCOCC2)ccc1Cl)c1cc(=O)c2ccccc2o1
# output 0.31

# input Follow-up item: CN1C(=O)c2cccc3c(N)ccc(c23)C1=O
# output 11.8

# input Follow-up item: NS(=O)(=O)c1ccc2nc(NC(=O)C3=COCCO3)sc2c1
# output -8.75

# input Follow-up item: CCOc1ccc2nc(NC(=O)CSc3nc4c(c(=O)n(C)c(=O)n4C)n3CC)sc2c1
# output 1.39

# input Follow-up item: CCC(C)(C)NC(=O)/C=C/c1cc(OC)c(OC)c(S(=O)(=O)N2CCc3ccccc32)c1
# output 0.08

###

Tested on: Glutamate receptor ionotropic, NMDA 3A (GRIN3A) ligand-binding domain
Assay: binders of NR3A ligand-binding domain, primary screen, biophysical, differential scanning fluorimetry, uHTS (AID 1259313)
Conditions: NR3A LBD differential scanning fluorimetry, at 25 µM, hits give high values, 0% = protein alone, 100% = glycine-bound protein
The campaign covered roughly 340,000 compounds. About 8,500 (2.5%) were called active. The entries come from a sample that favours actives as a whole.
Attribute: Tm shift relative to glycine control

# input Look up Tm shift relative to glycine control: COc1cc(CC(=O)Nc2nc(-c3ccc(F)c(F)c3)cs2)cc(OC)c1OC
# output -3.34% (inactive)

# input Follow-up item: Cc1cccc(NC(=S)NC23CN4CN(CN(C4)C2)C3)c1
# output -2.24% (inactive)

# input Follow-up item: COc1cc(S(=O)(=O)N2CCN(C(=O)C3CC3)CC2)ccc1NC(C)=O
# output 1.2% (inactive)

# input Follow-up item: CC(C)(C)n1nc2c(c1NC(=O)c1ccc(S(=O)(=O)N3CCCC3)cc1)CS(=O)C2 (stereo not drawn)
# output 0.18% (inactive)

# input Follow-up item: Cc1c(CN2CCCC(C(=O)c3cccc(Cl)c3)C2)c(=O)n(-c2ccccc2)n1C (stereo not drawn)
# output -0.59% (inactive)

# input Follow-up item: COc1cc(/C=N/Nc2nc3ccccc3s2)ccc1O
# output 20.7% (active)

# input Follow-up item: COc1ccc(OC)c(Nc2nc(-c3ccc(O)c(O)c3)cs2)c1
# output 19% (active)

# input Follow-up item: Cc1nc2ccc(NC(=S)N3CCC(C)CC3)cc2nc1C
# output -0.26% (inactive)

# input Follow-up item: CCC(CC)NC(=O)/C=C/c1cccc([N+](=O)[O-])c1
# output -1.15% (inactive)

This collection of values is drawn from PubChem BioAssay AID1259313.
